src = the Immune Epitope Database (IEDB)

Biological target: HLA-B*44:02
Test: IEDB peptide-MHC binding, purified MHC/competitive/radioactivity; filed as Kd, often an IC50 or EC50 that approximates it; bounds were set here for any values at or beyond the usual limits of such assays
Conditions: source organism: Dengue virus 2 Peru/IQT2913/1996
measured property: pKd
Answer as the number alone; pKd is minus log10 of concentration in mol/L.

Find pKd for TELRYSWKTW on HLA-B*44:02 and write it down.
8.10

###

Biological target: HLA-A*68:01
Experiment: IEDB peptide-MHC binding, purified MHC/competitive/radioactivity; filed as Kd, often an IC50 or EC50 that approximates it; bounds were set here for any values at or beyond the usual limits of such assays
Conditions: source organism: Mammarenavirus lassaense
measured property: Kd (nM)
Give the value in nM but do not write nM after it.

# return recorded Kd for entry QCKDLCHMH
1520
